# System: tRNA
# protocol description: Binding affinity to biotinylated-tRNA (unknown origin) at 200 uM measured after 120 secs by Surface plasmon resonance analysis
# Assay type: nucleic-acid assay
# experimental context: time 120.0 sec
Activity calls are given as the source filed them. No cut-off for these calls is given here.
recorded endpoint: Activity

Check out these entries, answers already filled in.
compound | target system | result
CN1CCC(O)(Cn2cnc3ccc(F)cc3c2=O)CC1 | tRNA | inactive
COc1ncccc1CN1CCN(c2ccc(C(N)=O)cc2)CC1 | tRNA | Active
c1ccc2sc(C3CCCN(Cc4cc5n(n4)CCCNC5)C3)nc2c1 (configuration not stated) | tRNA | inactive
NS(=O)(=O)c1ccc(CNC2CCC3(CCNCC3)CC2)cc1 | tRNA | inactive
NCC1Cc2cccc(-c3cc4c(cc3C(N)=O)OCO4)c2O1 (configuration not stated) | tRNA | Active

Lookup: What does the data say about its Activity? Entry: CCN1CCCC1CNC(=O)CCC1CCN(Cc2cc3ccccc3s2)CC1 (configuration not stated)
Found: Active

Lookup: // lookup Activity for Cc1ccc(NC(=O)NCC2CCCN(C3CCN(C)CC3)C2)cc1 (configuration not stated)
Found: Active
